The following compounds are listed with their measured log10 EC150 values.
- subject.of.test: Human AMPK α2β2γ1 (Homo sapiens, UniProt O43741+P54646)
- Construct: The full length cDNAs of human AMPK β2 (NM_005399.3) and human AMPK α2 (NM_006252.3); The full length cDNAs of human AMPK β2 (NM_005399.3); the full length cDNA of human AMPK γ1 (NM_002733.3) had been inserted into pET28b(+); 6×His (N); made in house; host or cells: Escherichia coli BL21 CodonPlus (DE3)-RIL
- Sequence (P54646 whole entry): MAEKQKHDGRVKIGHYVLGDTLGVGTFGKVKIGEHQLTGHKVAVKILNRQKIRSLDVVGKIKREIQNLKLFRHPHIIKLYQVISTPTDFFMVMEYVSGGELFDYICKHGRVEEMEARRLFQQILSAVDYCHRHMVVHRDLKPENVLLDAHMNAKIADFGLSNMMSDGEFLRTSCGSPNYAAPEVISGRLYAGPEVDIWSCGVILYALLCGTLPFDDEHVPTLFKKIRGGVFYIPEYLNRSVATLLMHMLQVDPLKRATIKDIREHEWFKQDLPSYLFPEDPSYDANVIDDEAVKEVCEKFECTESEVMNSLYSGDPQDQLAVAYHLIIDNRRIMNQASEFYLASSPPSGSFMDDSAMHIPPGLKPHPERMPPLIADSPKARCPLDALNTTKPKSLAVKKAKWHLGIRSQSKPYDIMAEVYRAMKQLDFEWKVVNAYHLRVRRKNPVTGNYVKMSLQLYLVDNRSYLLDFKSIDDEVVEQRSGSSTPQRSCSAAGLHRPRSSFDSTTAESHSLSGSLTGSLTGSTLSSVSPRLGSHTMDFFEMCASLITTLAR
- Sequence (O43741 whole entry): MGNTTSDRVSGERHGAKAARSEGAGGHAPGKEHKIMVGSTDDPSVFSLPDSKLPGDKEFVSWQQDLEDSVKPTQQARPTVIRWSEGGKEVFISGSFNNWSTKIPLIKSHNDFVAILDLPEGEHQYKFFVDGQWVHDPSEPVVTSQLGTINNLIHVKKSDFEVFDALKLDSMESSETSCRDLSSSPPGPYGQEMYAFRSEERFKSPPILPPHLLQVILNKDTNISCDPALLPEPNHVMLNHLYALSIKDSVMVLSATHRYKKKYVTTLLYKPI
- Sequence (P54619 whole entry partner): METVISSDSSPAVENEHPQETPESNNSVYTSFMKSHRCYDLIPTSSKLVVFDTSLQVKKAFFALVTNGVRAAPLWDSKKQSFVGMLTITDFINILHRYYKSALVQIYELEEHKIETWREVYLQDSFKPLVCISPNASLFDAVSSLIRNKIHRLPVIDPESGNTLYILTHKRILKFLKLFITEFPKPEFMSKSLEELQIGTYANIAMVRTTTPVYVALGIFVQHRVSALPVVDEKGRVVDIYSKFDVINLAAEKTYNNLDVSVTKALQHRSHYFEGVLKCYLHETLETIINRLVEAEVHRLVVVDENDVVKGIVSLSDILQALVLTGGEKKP
- measurement.protocol: Test Example 2: activation of phosphorylated human AMPK α2β2γ1 (mobility-shift kinase assay, FL-Peptide 7)
- Type: biochemical
- condition.notes: compound concentration showing 150% relative to the control (100%); human AMPK α2β2γ1 phosphorylated with CaMKK2
Log10 applied to EC150; unit prior to transform: nM.

compound	log10 EC150
COCCOC1CCN(c2ccc(-c3nc4cc(O[C@@H]5CO[C@H]6[C@@H]5OC[C@H]6O)[nH]c4cc3F)cc2)C1 (stereo partly drawn)	1.32
O[C@@H]1CO[C@H]2[C@@H]1OC[C@H]2Oc1cc2nc(-c3ccc(-c4ccc(OC5CNCC5F)cc4)cc3)c(F)cc2[nH]1 (stereo partly drawn)	0.64
O[C@@H]1CO[C@H]2[C@@H]1OC[C@H]2Oc1cc2nc(-c3ccc(-c4ccc(OCCC(F)F)cc4)cc3)c(F)cc2[nH]1	1.32
CC(C)(O)/C=C/c1ccc(-c2ccc(-c3nc4cc(O[C@@H]5CO[C@H]6[C@@H]5OC[C@H]6O)[nH]c4cc3F)cc2)cc1	1.04
CCP(=O)(CC)c1ccc(-c2ccc(-c3nc4cc(O[C@@H]5CO[C@H]6[C@@H]5OC[C@H]6O)[nH]c4cc3F)cc2)cc1	0.43

Looking for the measured log10 EC150 of CC(=O)NC1CCN(c2ccc(-c3nc4cc(O[C@@H]5CO[C@H]6[C@@H]5OC[C@H]6O)[nH]c4cc3F)cc2)CC1 , can you help?
0.98

Looking for the measured log10 EC150 of CC(C)OC(=O)NC1CCN(c2ccc(-c3nc4cc(O[C@@H]5CO[C@H]6[C@@H]5OC[C@H]6O)[nH]c4cc3F)cc2)CC1 , can you help?
0.93

Just for reference, patent US10478425B2 is where these values come from.
